Assignment: determine reported chromatographic logP for the given compounds.
Conditions: reversed-phase C18 HPLC column, logP, HPLC, C18, acetonitrile/water with formic acid (note a)
Reply briefly: the number, and no unit.

Please fill in: chromatographic logP reported for CCC(=O)NCc1cc(-c2cnn(-c3c(Cl)cc(C(F)(C(F)(F)F)C(F)(F)F)cc3S(C)(=O)=O)c2)ccc1F = 3.65

Please fill in: chromatographic logP reported for O=C(NCc1cc(-c2cnn(-c3c(Cl)cc(C(F)(C(F)(F)F)C(F)(F)F)cc3Cl)c2)ccc1Cl)C1CC1 = 4.8

Please fill in: chromatographic logP reported for N#CCC(=O)NCc1cc(-c2cnn(-c3c(Cl)cc(C(F)(C(F)(F)F)C(F)(F)F)cc3Br)c2)ccc1Cl = 4.28

Please fill in: chromatographic logP reported for CCC(=O)NC1CCc2ccc(-c3cnn(-c4c(Cl)cc(C(F)(C(F)(F)F)C(F)(F)F)cc4OC(F)(F)F)c3)cc21 (centres unmarked) = 4.84

Please fill in: chromatographic logP reported for CCS(=O)(=O)NCc1cc(-c2cnn(-c3c(Cl)cc(C(F)(C(F)(F)F)C(F)(F)F)cc3Cl)c2)ccc1Cl = 4.65

====

Tested on: Ctenocephalides felis
Assay: Ctenocephalides felis oral test
Assay type: in vivo
Conditions: 100 ppm in citrated cattle blood; after 2 days
Assignment: determine reported efficacy (rate of extermination) for the given molecules.
# value in %; strip the unit string

Please fill in: efficacy (rate of extermination) reported for CCC(=O)NC1CCc2ccc(-c3cnn(-c4c(Cl)cc(C(F)(C(F)(F)F)C(F)(F)F)cc4OC(F)F)c3)cc21 (centres unmarked) [I-Tc-03] = 100

Please fill in: efficacy (rate of extermination) reported for CC(=O)N(Cc1cc(-c2cnn(-c3c(Cl)cc(C(F)(C(F)(F)F)C(F)(F)F)cc3Cl)c2)ccc1Cl)CC1CC1 [Ia-116] = 100

Please fill in: efficacy (rate of extermination) reported for CC(=O)NCc1c(F)ccc(-c2cnn(-c3c(Cl)cc(C(F)(C(F)(F)F)C(F)(F)F)cc3OC(F)F)c2)c1F [Ia-158] = 100

Please fill in: efficacy (rate of extermination) reported for CN(Cc1cc(-c2cnn(-c3c(Cl)cc(C(F)(C(F)(F)F)C(F)(F)F)cc3Cl)c2)ccc1Cl)S(C)(=O)=O [Ic-04] = 100

Please fill in: efficacy (rate of extermination) reported for CCOCN(Cc1cc(-c2cnn(-c3c(Cl)cc(C(F)(C(F)(F)F)C(F)(F)F)cc3Cl)c2)ccc1Cl)C(C)=O [Ia-117] = 100

====

Assignment: determine reported efficacy for the given molecules.
Tested on: Tetranychus urticae
Assay: Tetranychus urticae spray test, OP-resistant (bean leaf discs)
Type: in vivo
Conditions: 100 g/ha; after 6 days
# value in %; strip the unit string

Log: Tetranychus urticae, molecule CC(=O)N(C)Cc1cc(-c2cnn(-c3c(Cl)cc(C(F)(C(F)(F)F)C(F)(F)F)cc3Cl)c2)ccc1Br [Ia-165] , efficacy = 90

Log: Tetranychus urticae, molecule CC(=O)NCc1cc(-c2cnn(-c3c(C)cc(C(F)(C(F)(F)F)C(F)(F)F)cc3C)c2)ccc1F [Ia-13] , efficacy = 100

Log: Tetranychus urticae, molecule CC(C)C(=O)NCc1cc(-c2cnn(-c3c(Cl)cc(C(F)(C(F)(F)F)C(F)(F)F)cc3C(F)F)c2)ccc1F [Ia-60] , efficacy = 100

Log: Tetranychus urticae, molecule CC(=O)NCc1c(F)ccc(-c2cnn(-c3c(Cl)cc(C(F)(C(F)(F)F)C(F)(F)F)cc3Cl)c2)c1F [Ia-149] , efficacy = 100

Measured values drawn from patent US10357036B2 for this set.
